Recorded IC50 by entry
# measured on: C5aR (Homo sapiens (Human))
# Sequence (P21730 whole entry): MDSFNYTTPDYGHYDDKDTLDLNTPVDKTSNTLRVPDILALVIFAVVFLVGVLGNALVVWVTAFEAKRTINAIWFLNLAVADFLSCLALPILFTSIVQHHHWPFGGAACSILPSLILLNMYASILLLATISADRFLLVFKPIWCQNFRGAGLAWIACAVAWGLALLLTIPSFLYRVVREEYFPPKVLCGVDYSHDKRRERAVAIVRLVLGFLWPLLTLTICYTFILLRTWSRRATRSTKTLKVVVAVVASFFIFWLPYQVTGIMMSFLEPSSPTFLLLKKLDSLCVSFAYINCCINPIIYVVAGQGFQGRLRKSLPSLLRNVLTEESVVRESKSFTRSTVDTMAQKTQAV
# assay overview: Calcium mobilization (U937/C5aR or HEK293/C5aR cells, FLIPR)
# Type: cell-based
# measurement context: agonist human C5a at EC80, FLIPR

The following compounds have reported results that may help.
compound="Cc1cccc(F)c1C(=O)N1C(c2ccc(NC3CCCC3)cc2)C(C(=O)Nc2cnc3cnn(C)c3c2)C[C@@H]2COC[C@@H]21 (relative stereo)" measured_on="C5aR (Homo sapiens (Human))" result="2000 to 10000 nM"
compound=Cc1cccc(F)c1C(=O)N1[C@@H]2CCC[C@@H]2C[C@H](C(=O)NC2CCOCC2)[C@@H]1c1ccc(NC2CCCC2)cc1 measured_on="C5aR (Homo sapiens (Human))" result="2000 to 10000 nM"
compound=Cc1ccc(NC(=O)[C@H]2CCCN(S(=O)(=O)c3cccc(F)c3C)[C@H]2c2ccc(NC3CCCC3)cc2)cc1C(F)(F)F measured_on="C5aR (Homo sapiens (Human))" result="> 10000 nM"
compound="Cc1ccc(NC(=O)[C@@H]2CC(O)CN(C(=O)c3c(C)cccc3F)[C@@H]2c2ccc(NC3CCCC3)cc2)cc1C(F)(F)F (relative stereo)" measured_on="C5aR (Homo sapiens (Human))" result="2000 to 10000 nM"
compound=Cc1cccc(F)c1C(=O)N1[C@@H]2CCC[C@@H]2C[C@H](C(=O)Nc2ccc3c(cnn3C)c2)[C@@H]1c1ccc(NC2CCCC2)cc1 measured_on="C5aR (Homo sapiens (Human))" result="500 to 2000 nM"

API: the following record is the query input.
Prompt: For the record Cc1ccc(NC(=O)[C@H]2CCCN[C@H]2c2ccc(N(c3ncnc4cccnc34)C3CCCC3)cc2)cc1C(F)(F)F , what value of IC50 is listed for C5aR (Homo sapiens (Human))?
Completion: 2000 to 10000 nM
